- Test system: DU-145 prostate
- run description: NCI-60 one-dose screen, 48 h (100 = growth as untreated, 0 = no growth, -100 = all killed)
- test context: 10 µM unless noted
This is part of a sample that, as a whole, favours compounds with a hit. Of some 83,000 tested, about 20% had one in any assay.
Give growth for every item shown.
Answers are plain numbers, in %.

Sample records with growth:
CCCOC(=O)n1cccc1
108
COc1cc(-c2nn(-c3cccc(NC(=O)c4ccc(N5CCOCC5)c(C(F)(F)F)c4)c3)cc2-c2ccncc2)ccc1Cl
10.9

State recorded growth for all listed compounds.
1. O=C1NN(C(=O)c2ccc(Cl)cc2)C(c2ccccc2)=N/C1=C\c1ccc(F)cc1
2. CCN1C(=O)N(CC)C2C1NN=c1s/c(=C\c3cccnc3)c(=O)n12 (centres undefined)
3. C=C(C)[C@@H]1CC[C@]2(C(=O)O)CC[C@]3(C)[C@H](CC[C@@H]4[C@@]5(C)C[C@@H](CC#Cc6ccc(C(F)(F)F)cc6)[C@H](O)C(C)(C)[C@@H]5CC[C@]43C)[C@@H]12
4. NC1N=C(SCC(=O)N2CCN(c3cc4c(cc3F)c(=O)c(C(=O)O)cn4C3CC3)CC2)NC(=O)/C1=C/c1ccc(Cl)cc1 (centres undefined)
5. COc1ccc(/C=C2\Oc3cc(OCCCN4CCCC4)ccc3C2=O)cc1
6. COc1ccc(C2C(C#N)=C(N)Oc3c2ccc2ccccc32)cc1 (centres undefined)
7. Fc1ccc(Nc2nc(NCCNc3ccnc4cc(Cl)ccc34)nc(N3CCOCC3)n2)cc1

[112, 17, 22.6, 112, 95.4, 78.4, 75]

----------
- Test system: UO-31 renal
- run description: NCI-60 one-dose screen, 48 h
- test context: 10 µM unless noted
Compounds without any hit were thinned out: in the full panel of roughly 83,000, 20% have a hit. The source made the active and inactive calls. Rule for the calls: active = growth percent below 10; inactive = the rest.
The reply should name one outcome from T = active, F = inactive

COc1ccc(Nc2nn3c(-c4ccccc4)cc(-c4ccccc4)nc3c2C(N)=O)c(OC)c1
F

Assay result, entry `CC(C)(C)n1cc(-c2ccnc(NCCNS(=O)(=O)c3ccc(Cl)cc3)c2)c(-c2cccc(O)c2)n1` — outcome? F

Assay result, entry `COc1cc(-c2nn(-c3cccc(NC(=O)Nc4ccc(Cl)c(C(F)(F)F)c4)c3)cc2-c2ccncc2)ccc1Cl` — outcome? F

Assay result, entry `CCN(CC)CCOC(=O)C(c1ccccc1)(c1ccccc1)C(C)C` — outcome? F

Assay result, entry `COc1ccc(Nc2[nH]n3c(=O)cc(C)nc3c2C(N)=O)c(OC)c1` — outcome? F

Assay result, entry `Cc1[nH]c2ccc(F)cc2c1CCNC(=O)C1CCN(C(=O)c2ccccc2)CC1` — outcome? F

----------
- Test system: NCI-H23 lung
- run description: NCI-60 one-dose screen, 48 h (100 = growth as untreated, 0 = no growth, -100 = all killed)
- test context: 10 µM unless noted
Compounds without any hit were thinned out: in the full panel of roughly 83,000, 20% have a hit.
Mark false (0) for growth values under 80%, and true (1) for everything at or above.

Worked examples follow.
COc1ccc(CN2CCc3c(Sc4ccccc4)nc(N)nc3C2=O)c(OC)c1
false (0)
O=c1ccn(C2CC(O)C(O)C(CO)O2)c(=O)[nH]1 (centres undefined)
true (1)
Cc1cc(C(C)(C)C)ccc1S
true (1)
CC(C)(C)n1cc(-c2ccnc(NCCCNS(=O)(=O)c3ccc(Cl)cc3)c2)c(-c2cccc(O)c2)n1
false (0)
Cc1cc(N/N=C/c2nc(-c3ccc(Br)cc3)oc2C)c2cc(Cl)ccc2n1
true (1)

Given the entry `CC1(C)C(=O)/C(=C\c2ccc(C(F)(F)F)cc2)C[C@]2(C)[C@H]3CC[C@@H]4[C@H]5[C@H](C(=O)/C=C/c6ccc(C(F)(F)F)cc6)CC[C@]5(CO)CC[C@@]4(C)[C@]3(C)CC[C@@H]12` , answer whether its growth meets or surpasses 80%. true (1)

Given the entry COc1cc(C2CC(c3ccc4c(c3)OCO4)=NN2C(C)=O)cc(OC)c1OC (centres undefined) , answer whether its growth meets or surpasses 80%. false (0)

Given the entry `CC(C)(C)n1cc(-c2ccnc(NCCCNS(=O)(=O)c3ccc(C(F)(F)F)cc3)c2)c(-c2cccc(O)c2)n1` , answer whether its growth meets or surpasses 80%. false (0)

Given the entry `COc1ccc(/C=C2\N=C(c3ccccc3)N(C(=O)c3ccccc3O)NC2=O)cc1` , answer whether its growth meets or surpasses 80%. true (1)

Given the entry `COc1ccc(NC(=O)c2cc(OC)c(OC)c(OC)c2)cc1O` , answer whether its growth meets or surpasses 80%. false (0)

----------
- Tested on: KM12 colon
- run description: NCI-60 one-dose screen, 48 h (100 = growth as untreated, 0 = no growth, -100 = all killed)
- test context: 10 µM unless noted
About 83,000 compounds went through this panel and 20% of them were active in at least one assay; those are over-represented in the sample as a whole.
endpoint name: growth (%)
Give bare numbers, in %.

CN(C)c1ncnc2c1ccn2C1OC(CO)C(O)C1O (stereo not given)
84.1

State recorded growth for all listed molecules.
1. OC(c1cc2cc(Br)ccc2c2cc(Br)ccc12)C1CCCCN1 (stereo not given)
2. O=c1c2sc3ncccc3c2nnn1-c1ccccc1
3. CN1CCN(Cc2ccc(NC(=O)c3cncc(C#Cc4cnc(N)c5ccncc45)c3)cc2C(F)(F)F)CC1
4. C=C[C@@H]1C[C@@H]2Cc3cc(Cl)ccc3N1O2
5. O=[N+]([O-])c1cc(S(=O)(=O)Oc2ccccc2)ccc1Cl
6. COc1ccc(OC)c(C2OC(c3ccc4ccccc4c3O)=NN2C(C)=O)c1 (stereo not given)

1. -91.7
2. 106
3. 9.68
4. 97.3
5. -71.8
6. 60.1

State recorded growth for all listed molecules.
1. CC(=O)OC[C@]12CC[C@H]3[C@@H](C[C@H]4O[C@]45CC=CC(=O)[C@]35C)[C@]1(O)CC[C@@]2(O)[C@@](C)(O)C1CC(C)=C(C)C(=O)O1 (stereo not given in full)
2. N=C(N)c1ccc(-c2ccc(-c3ccc(-c4cccs4)s3)s2)cc1
3. C=C(C)[C@@H]1CC[C@]2(C(=O)N3CCNCC3)CC[C@]3(C)[C@H](CC[C@@H]4[C@@]5(C)C/C(=C/c6ccncc6)C(=O)C(C)(C)[C@@H]5CC[C@]43C)[C@@H]12
4. Nc1cc2c(cc1C(=O)c1cccc(F)c1)OCCO2
5. COc1ccc2[nH]c(=O)c3c4ccccc4cn3c2c1
6. COc1ccccc1CNCCCN1C(=O)c2ccc3c4c(ccc(c24)C1=O)C(=O)N(CCCNCCCCNCCCN)C3=O

-70.8
96.8
109
100
10.4
-18.7

----------
Give growth for every item shown.
- Tested on: SR leukemia
- run description: NCI-60 one-dose screen, 48 h (100 = growth as untreated, 0 = no growth, -100 = all killed)
- test context: 10 µM unless noted
- Procedure: Growth inhibition of the SR human tumor cell line is measured as a screen for anti-cancer activity. Cells are grown in 96 well plates and exposed to the test compound for 48 hours. Compounds are tested at a single concentration, which is 10^-5 M for most compounds. The reported endpoint is percent growth (GI% or GIPRCNT), where numbers from 0 - 100% represent growth inhibition, and numbers from -100% - 0 represent cell death. For example, a value of 40 represents 60% growth inhibition. […]
About 83,000 compounds went through this panel and 20% of them were active in at least one assay; those are over-represented in the sample as a whole.
One number for each entry, in %.

c1cc(C2=N[C@@H]3c4ccccc4C[C@@H]3O2)nc(C2=N[C@@H]3c4ccccc4C[C@@H]3O2)c1
101

State recorded growth for all listed compounds.
1. Oc1ccccc1/C=N/NC(=S)NC1CC2C=CC1C2 (centres undefined)
2. O=[N+]([O-])c1cccc(-c2nc3sccn3c2-c2ccnc(NCCCNS(=O)(=O)c3ccc(C(F)(F)F)cc3)n2)c1
3. CC(C)NCCCNC1=C(Cl)C(=O)c2ccccc2C1=O

1: 30.1; 2: 37.5; 3: -22.7

State recorded growth for all listed compounds.
1. O=C1C2(c3ccccc3)C(c3ccccc3)=C(c3ccccc3)C1(c1ccccc1)C1CC=CC12 (centres undefined)
2. COc1cc(C2CC(c3ccc4c(c3)OCO4)=NN2C=O)cc(OC)c1OC (centres undefined)
3. Cn1c(=O)cc(NC(=O)CN2CCN(c3cc4c(cc3F)c(=O)c(C(=O)O)cn4C3CC3)CC2)[nH]c1=O

1: 101; 2: 33.5; 3: 103

State recorded growth for all listed compounds.
1. C/C(=C\c1ccc(OCC(=O)O)c(Cl)c1Cl)[N+](=O)[O-]
2. COc1ccc(-c2nc(/C=N/Nc3cc(C)nc4ccc(Br)cc34)c(C)o2)cc1

1. 72.1
2. -21

----------
- Tested on: TK-10 renal
- run description: NCI-60 one-dose screen, 48 h (100 = growth as untreated, 0 = no growth, -100 = all killed)
- test context: 10 µM unless noted
Compounds without any hit were thinned out: in the full panel of roughly 83,000, 20% have a hit.
Mark NOT MET for growth values under 90%, and MET for everything at or above.

Cc1cc(C2=NNC(=O)Cc3cc4c(cc32)OCCO4)cc(C)c1N
NOT MET

Given the entry `COc1ccc(C(=O)N2NC(=O)/C(=C/c3ccc(F)cc3)N=C2c2ccccc2)cc1` , answer whether its growth meets or surpasses 90%. MET

Given the entry `CCOC(=O)c1c(NS(=O)(=O)c2ccc(C)cc2)sc2c1CCC1(C2)OCCO1` , answer whether its growth meets or surpasses 90%. MET

Given the entry `COc1ccc(-c2cnnn2-c2nonc2-n2cccc2)cc1OC` , answer whether its growth meets or surpasses 90%. NOT MET

Given the entry `Clc1ccccc1-c1nc2ccccc2[nH]1` , answer whether its growth meets or surpasses 90%. MET

Given the entry `CCCCCCCC[C@@H](O)CC(=O)N[C@@H](CC(N)=O)C(=O)N[C@@H](CCC(N)=O)C(=O)N[C@@H](CC(=O)c1cc(C)cc(O)c1C(=O)c1c(O)cccc1O)CC(C)C` , answer whether its growth meets or surpasses 90%. NOT MET

Given the entry `Cc1ccc2nc(Cl)cc(=O)n2c1` , answer whether its growth meets or surpasses 90%. MET

Given the entry `Clc1ccc(-c2nc3ccccc3s2)cc1Cl` , answer whether its growth meets or surpasses 90%. NOT MET

Given the entry CC(C)(C)c1[nH]nc2c1C(c1cc3ccccc3[nH]c1=O)Nc1cc(C(=O)Nc3ccc(Cl)cc3)ccc1N2 (configuration not stated) , answer whether its growth meets or surpasses 90%. MET

Given the entry `N=C(N)c1ccc(-c2ccc(-c3ccc(-c4cccs4)s3)s2)cc1` , answer whether its growth meets or surpasses 90%. MET

Given the entry `COc1ccc(-c2nc(/C=N/Nc3cc(C)nc4ccc(Br)cc34)c(C)o2)cc1` , answer whether its growth meets or surpasses 90%. NOT MET

Given the entry `Cc1c(C(=N)C(C#N)C#N)c(=N)oc2c1ccc1ccccc12` , answer whether its growth meets or surpasses 90%. MET

Given the entry `COc1cc(-c2nc(N=Nc3c(O)[nH]c4ccc(Br)cc34)[nH]c(=O)c2C#N)cc(OC)c1OC` , answer whether its growth meets or surpasses 90%. MET

Given the entry `O=C1/C(=C/c2ccccc2)CN(C(=O)CCN2CCC(=NO)CC2)C/C1=C\c1ccccc1` , answer whether its growth meets or surpasses 90%. NOT MET

Given the entry `COc1ccc(Cn2cc3c(c2-c2cc(OC)c(OC)c(OC)c2)CCc2cnoc2-3)cc1` , answer whether its growth meets or surpasses 90%. NOT MET

Given the entry `Cc1c(C(=O)/C=C/c2csc3ccccc23)[n+](=O)c2ccccc2n1[O-]` , answer whether its growth meets or surpasses 90%. NOT MET

Given the entry `CCN(CC)CCOc1ccc(Cl)c(C)c1` , answer whether its growth meets or surpasses 90%. MET

Given the entry C=C1CCC2C(C)(CO)C(O)CCC2(C)C1C/C=C1/C(=O)OCC1O/C=C/c1ccccc1 (configuration not stated) , answer whether its growth meets or surpasses 90%. MET

Given the entry `S=C1CC(=S)NC(=S)N1` , answer whether its growth meets or surpasses 90%. MET

Given the entry `COc1cc(/C=N\NC(=O)CN2CCN(c3cc4c(cc3F)c(=O)c(C(=O)N/N=C/c3cc(OC)c(OC)c(OC)c3)cn4C3CC3)CC2)cc(OC)c1OC` , answer whether its growth meets or surpasses 90%. NOT MET

Given the entry `COc1cc(/C=C/C(=O)N2CCN(C(=O)/C=C/c3cc(OC)c(OC)c(OC)c3)CC2)cc(OC)c1OC` , answer whether its growth meets or surpasses 90%. MET

Given the entry `COc1ccc(C(=O)N2NC(=O)/C(=C/c3ccccc3F)N=C2c2ccccc2)cc1` , answer whether its growth meets or surpasses 90%. MET

Given the entry `Fc1ccc(Nc2nc(NCCNc3ccnc4cc(Cl)ccc34)nc(N3CCOCC3)n2)cc1` , answer whether its growth meets or surpasses 90%. NOT MET

Data origin: PubChem BioAssay (NCI)
